Taken from paper PMC5723990.

target: N-CaM (N-lobe of CaM, 74-aa construct) (Homo sapiens, UniProt P0DP23); construct: partial CaMs: N-CaM(1–74), C-CaM(75–148); His tag; made in house; host or cells: bacteria (E. coli); assay: Isothermal titration calorimetry with N-lobe of CaM; conditions: ITC, one-set-of-sites fit, 25 °C, 10 mM HEPES pH 7.0, 0.1 mM CaCl2, mean of n = 3 (Fig. 6A), read-out: Binding affinity (Ka)
No end group written: not given here.
Property Name: pKd
Quick note: pKd means taking -log10 of the concentration in moles per liter.

Q: Reported pKd, sequence YEELLKYVGHIFRKVKRRSLRLYARW [Cav3.2] : ____
Ans: 7.51
